The measurements presented in this section are drawn from patent US20110060017A1.

# maps each entry to its melting point
READOUT KIND: melting point

>>> reading("Nc1c(-c2ccc(C(F)(F)F)cc2F)nnn1Cc1ccc(O)cc1")
"168.2 to 169.5 °C"
>>> reading("COc1ccc(Cn2nnc(-c3ccc(C(F)(F)F)cc3F)c2N)cc1")
"153.2 to 154.4 °C"
>>> reading("COc1ccc(Cn2nnc(-c3ccc(Cl)cc3Cl)c2N)cc1")
"134.4 to 136.8 °C"
>>> reading("Nc1c(-c2ccc(Cl)cc2Cl)nnn1Cc1ccc(O)cc1")
"172.5 to 174.1 °C"
>>> reading("Nc1c(-c2ccc(C(F)(F)F)cc2F)nnn1Cc1ccc(S(N)(=O)=O)cc1")
"180.1 to 181.3 °C"
>>> reading("COc1ccc(-c2nnn(Cc3ccc(Cl)cc3Cl)c2N)cc1")
"156.5 to 159 °C"
>>> reading("Nc1c(-c2ccc(Cl)cc2Cl)nnn1Cc1ccc(S(N)(=O)=O)cc1")
"204 to 205.6 °C"
